Reported values of Amount Found for individual entries
# Type: physicochemical
# setup_conditions: 100 ppm standard, 0 minutes
Value expressed in ppm; do not type the unit.

Illustrative cases are given below, each with its answer.
O=C(O)C(=O)[C@@H](O)[C@H](O)[C@@H](O)CO [KLG, 2-keto-L-gulonic acid] ... 102
CCCCOC(=O)C(=O)[C@@H](O)[C@H](O)[C@@H](O)CO [butyl-KLG, butyl 2-keto-L-gulonate] ... 101

The recorded Amount Found for COC(=O)C(=O)[C@@H](O)[C@H](O)[C@@H](O)CO [MeKLG, methyl-2-keto-L-gulonate] is 103

The recorded Amount Found for O=C1O[C@H]([C@@H](O)CO)C(O)=C1O [ASA, ascorbic acid] is 107

Hello, the source for this data is patent US5817490A, in case you need it.
